# target: IspE (4-diphosphocytidyl-2-c-methyl-d-erythritol kinase; Rv1011) (Mycobacterium tuberculosis)
# Sequence (P9WKG7 2-318): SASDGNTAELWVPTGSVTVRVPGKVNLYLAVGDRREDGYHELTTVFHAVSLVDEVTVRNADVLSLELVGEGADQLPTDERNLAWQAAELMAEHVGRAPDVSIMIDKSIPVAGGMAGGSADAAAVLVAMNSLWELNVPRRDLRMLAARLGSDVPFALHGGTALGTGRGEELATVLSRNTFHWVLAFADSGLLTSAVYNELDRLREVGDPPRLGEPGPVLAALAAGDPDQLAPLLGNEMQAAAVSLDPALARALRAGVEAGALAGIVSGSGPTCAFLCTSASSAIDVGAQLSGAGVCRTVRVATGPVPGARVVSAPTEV
# experimentalProtocol: ADP Quest HS coupled fluorescent kinase assay (resorufin) with Rv1011, ATP and CDP-ME
# Assay type: biochemical
reportedProperty: IC50 (µM)
Entry rule: numbers only, all in µM.

Exercise: I have this compound here, Cc1ccc([C@H]2c3c([nH]n(-c4ccccc4)c3=O)NC3=C[C@H](C)CC(=O)[C@H]32)cc1 , and I need its recorded IC50.
Solution: 15.6
